experimental_system: CDK2/cyclin A2 (Homo sapiens)
Construct: purchased Carna Biosciences, Inc. QS S Assist CDK2/Cyclin A2_FP Kit
procedure_details: Human CDK2/cyclin A2 inhibitory activity (QS S Assist CDK2/Cyclin A2_FP Kit, IMAP fluorescence polarization)
Type: biochemical
measurement_conditions: Human CDK2/cyclin A2 inhibitory activity; read-out: CDK2 Activity symbol
pIC50: −log10 of the molar value.
Provide the reported pIC50 of each item.

Q. For the record CO[C@H](C)c1cc2cnc(Nc3ccc(CN4CC5CC(C4)O5)cn3)nc2c(NC(C)C)n1 [Compound 272] , what value of pIC50 is listed for CDK2/cyclin A2 (Homo sapiens)?
A. ≤ 7.00

Q. For the record CC(O)c1cc2cnc(Nc3ccc(N4CCNCC4)cn3)nc2c(NC(C)c2cn[nH]c2)n1 (stereo not shown) [Compound 106] , what value of pIC50 is listed for CDK2/cyclin A2 (Homo sapiens)?
A. ≤ 7.00

Q. For the record CC(O)c1cc2cnc(Nc3ccc(N4CCNCC4)cn3)nc2c(NC2CCCC2)n1 (stereo not shown) [Compound 8] , what value of pIC50 is listed for CDK2/cyclin A2 (Homo sapiens)?
A. ≤ 7.00

Q. For the record C[C@@H](O)c1cc2cnc(Nc3ccc(N4CCNCC4)nn3)nc2c(N[C@H]2CCOC2)n1 [Compound 251] , what value of pIC50 is listed for CDK2/cyclin A2 (Homo sapiens)?
A. ≤ 7.00

Q. For the record CC(C)Nc1nc([C@@H](C)O)cc2cnc(Nc3ccc(N4CCN(C(C)C)CC4=O)cn3)nc12 [Compound 584] , what value of pIC50 is listed for CDK2/cyclin A2 (Homo sapiens)?
A. ≤ 7.00

Q. For the record CC(C)Nc1nc(C(F)F)cc2cnc(Nc3ccc(OCCO)cn3)nc12 [Compound 155] , what value of pIC50 is listed for CDK2/cyclin A2 (Homo sapiens)?
A. 7.00 to 8.00

Q. For the record CC(C)Nc1nc([C@@H](C)O)cc2cnc(Nc3ccc(N4CCN(C(C)CO)CC4)nn3)nc12 (stereo partly shown) [Compound 588] , what value of pIC50 is listed for CDK2/cyclin A2 (Homo sapiens)?
A. ≤ 7.00

Q. For the record CCNC(=O)NCc1ccc(Nc2ncc3cc(C(F)F)nc(NC(C)C)c3n2)nc1 [Compound 186] , what value of pIC50 is listed for CDK2/cyclin A2 (Homo sapiens)?
A. ≤ 7.00

Q. For the record Cc1nnc(NCc2ccc(Nc3ncc4cc(C(F)F)nc(NC(C)C)c4n3)nc2)[nH]1 [Compound 158] , what value of pIC50 is listed for CDK2/cyclin A2 (Homo sapiens)?
A. ≤ 7.00

Q. For the record FC(F)c1cc2cnc(Nc3ccc(CN4CCNCC4)cn3)nc2c(N[C@H]2CCCOC2)n1 [Compound 380] , what value of pIC50 is listed for CDK2/cyclin A2 (Homo sapiens)?
A. ≤ 7.00

Q. For the record C[C@@H](O)c1cc2cnc(Nc3ccc(N4CCNCC4)nn3)nc2c(N[C@H]2CC[C@H](C(=O)O)CC2)n1 [Compound 338] , what value of pIC50 is listed for CDK2/cyclin A2 (Homo sapiens)?
A. ≤ 7.00

Q. For the record CC(O)c1cc2cnc(Nc3ccc(N4CCNCC4)cn3)nc2c(NCC(F)F)n1 (stereo not shown) [Compound 36] , what value of pIC50 is listed for CDK2/cyclin A2 (Homo sapiens)?
A. ≤ 7.00

Q. For the record CC(C)Nc1nc(C(F)F)cc2cnc(Nc3ccc(-c4cnn(C)c4)cn3)nc12 [Compound 188] , what value of pIC50 is listed for CDK2/cyclin A2 (Homo sapiens)?
A. ≤ 7.00

Q. For the record CO[C@H](C)c1cc2cnc(Nc3ccc(C(=O)N4CCNCC4)cn3)nc2c(NC(C)C)n1 [Compound 389] , what value of pIC50 is listed for CDK2/cyclin A2 (Homo sapiens)?
A. 7.00 to 8.00

Q. For the record CC(O)c1cc2cnc(Nc3ccc(N4CCNCC4)cn3)nc2c(Nc2ccn[nH]2)n1 (stereo not shown) [Compound 27] , what value of pIC50 is listed for CDK2/cyclin A2 (Homo sapiens)?
A. ≤ 7.00

Q. For the record CC(C)Nc1nc(C(F)F)cc2cnc(Nc3ccc(CCO)cn3)nc12 [Compound 134] , what value of pIC50 is listed for CDK2/cyclin A2 (Homo sapiens)?
A. 7.00 to 8.00

---

experimental_system: CDK2/cyclin A2 (Homo sapiens, UniProt P24941)
Construct: purchased Carna Biosciences, Inc. QS S Assist CDK2/Cyclin A2_FP Kit
procedure_details: Human CDK2/cyclin A2 inhibitory activity (QS S Assist CDK2/Cyclin A2_FP Kit, IMAP fluorescence polarization)
Format: biochemical
measurement_conditions: 50% inhibitory concentration against CDK2/cyclin A2, given as class symbol
attribute_measured: IC50

Q. So what's the measured IC50 for this one? CCNc1nc([C@@H](C)O)cc2cnc(Nc3ccc(CN4CC5CCC(C4)N5C)cn3)nc12 [Compound 1222]
A. ≥ 100 nM

Q. So what's the measured IC50 for this one? CC(=O)c1cc2cnc(Nc3ccc4c(n3)CCNC4)nc2c(NC(C)C)n1 [Compound 1027]
A. ≥ 100 nM

Q. So what's the measured IC50 for this one? C[C@@H](O)c1cc2cnc(Nc3ccc4c(n3)CCN(C(=O)CO)C4)nc2c(N[C@H]2CC[C@@H](C)CC2)n1 [Compound 653]
A. ≥ 100 nM

Q. So what's the measured IC50 for this one? CC(C)Nc1nc(C2CCCO2)cc2cnc(Nc3ccc(N4CCNCC4=O)cn3)nc12 (single isomer, unassigned) [Compound 672]
A. ≥ 100 nM

Q. So what's the measured IC50 for this one? C[C@@H](O)c1cc2cnc(Nc3ccc(N4CCNCC4)nn3)nc2c(NC(C)(C)C)n1 [Compound 791]
A. 10 to 100 nM

Q. So what's the measured IC50 for this one? CCNc1nc([C@@H](C)O)cc2cnc(Nc3ccc(CN4CCN(C(C)CO)CC4)cn3)nc12 (single isomer, unassigned) [Compound 1089]
A. ≥ 100 nM

Q. So what's the measured IC50 for this one? CC(C)Nc1nc([C@@H](C)O)cc2cnc(Nc3ccc(N4CCNC[C@@H]4C)cn3)nc12 [Compound 986]
A. ≥ 100 nM

Q. So what's the measured IC50 for this one? CC(C)Nc1nc([C@@H](C)F)cc2cnc(Nc3ccc(N4CCNCC4)nn3)nc12 [Compound 718]
A. ≥ 100 nM

Q. So what's the measured IC50 for this one? CCCNc1nc([C@@H](C)O)cc2cnc(Nc3ccc(CN4CCN(CCO)C[C@H]4C)cn3)nc12 [Compound 1076]
A. ≥ 100 nM

Q. So what's the measured IC50 for this one? CC(C)Nc1nc([C@@H](C)O)cc2cnc(Nc3ccc(N4CCN(C(=O)C(C)C)CC4)nn3)nc12 [Compound 746]
A. ≥ 100 nM

Q. So what's the measured IC50 for this one? C[C@@H](O)c1cc2cnc(Nc3ccc(N4CCNCC4)cn3)nc2c(N[C@@H]2CCOC2)n1 [Compound 995]
A. ≥ 100 nM

Q. So what's the measured IC50 for this one? CC(C)Nc1nc([C@@H](C)O)cc2cnc(Nc3ccc(C(=O)N4CC[C@H](N(C)C)C4)cn3)nc12 [Compound 1162]
A. 10 to 100 nM

Q. So what's the measured IC50 for this one? CO[C@H](C)c1nc(NC(C)C)c2nc(Nc3ccc(C(=O)N4CCNCC4)cn3)ncc2c1Cl [Compound 842]
A. ≥ 100 nM

Q. So what's the measured IC50 for this one? CC1(c2cc3cnc(Nc4ccc(CN5CCNCC5)cn4)nc3c(NC3CCC3)n2)COC1 [Compound 1108]
A. ≥ 100 nM

Q. So what's the measured IC50 for this one? COC[C@H](C)Nc1nc([C@@H](C)O)cc2cnc(Nc3ccc(OCCN(C)C)cn3)nc12 [Compound 754]
A. ≥ 100 nM

---

experimental_system: CDK2/cyclin A2 (Homo sapiens, UniProt P24941)
Construct: purchased Carna Biosciences, Inc. QS S Assist CDK2/Cyclin A2_FP Kit
procedure_details: Human CDK2/cyclin A2 inhibitory activity (QS S Assist CDK2/Cyclin A2_FP Kit, IMAP fluorescence polarization)
Type: biochemical
measurement_conditions: 50% inhibitory concentration against CDK2/cyclin A2, given as class symbol
pIC50: −log10 of the molar value.
attribute_measured: pIC50

Q. So what's the measured pIC50 for this one? C[C@@H](O)c1cc2cnc(Nc3ccc4c(n3)CCN(C(=O)CO)C4)nc2c(NC2CCC(C)(C)CC2)n1
A. ≤ 7.00

Q. So what's the measured pIC50 for this one? C[C@@H](O)c1cc2cnc(Nc3ccc(CN4CCN(CCO)CC4)cn3)nc2c(NC23CC(C2)C3)n1
A. ≤ 7.00

Q. So what's the measured pIC50 for this one? CC(C)Nc1nc(C(C)O)cc2cnc(Nc3ccc(OC4CNCCC4F)cn3)nc12 (centres unmarked)
A. ≤ 7.00

Q. So what's the measured pIC50 for this one? Cc1nc(Nc2ncc3c(Cl)c(C(F)F)nc(NC(C)C)c3n2)ccc1N1CCNCC1=O
A. ≤ 7.00

Q. So what's the measured pIC50 for this one? CO[C@H](C)c1cc2cnc(Nc3ccc(N4CCN(C(C)(C)C(=O)O)CC4)nn3)nc2c(NC(C)C)n1
A. ≤ 7.00

Q. So what's the measured pIC50 for this one? CC(C)Nc1nc(C(C)O)cc2cnc(Nc3ccc(OC4CNCC4F)cn3)nc12 (centres unmarked)
A. ≤ 7.00

Q. So what's the measured pIC50 for this one? CO[C@H](C)c1cc2cnc(Nc3ccc(CN4CCN(CCO)CC4)cn3)nc2c(N[C@H](C)CO)n1
A. ≤ 7.00

Q. So what's the measured pIC50 for this one? CC1(c2cc3cnc(Nc4ccc(CN5CCNCC5)cn4)nc3c(N[C@H]3CCCOC3)n2)COC1
A. ≤ 7.00
